Biological target: T1, 417N/484K/501Y RBD mutant (SARS-CoV-2, Wuhan-Hu-1 RBD backbone …, 417N | 484K | 501Y)
T1 construct: also called RBD KEN
Test: BLI
Conditions: both partners purified
Parameter: Kd (nM)
Only the number, expressed in nM, is required.

Some binders with recorded Kd:
{"Binder": "V062 (antibody, V domains shown, IgG; donor BRA15; source: recombinant monoclonal IgG, produced and purified as previously described) VH: QLQLQESGPGLVKPSETLSLTCTVSSGSISSSSYYWGWIRQPPGKGLEWIGSIYYSGSTYYNPSLKSRVTISVDTSKNQFSLKLSSVTAADTAVYYCARHWRENFAHAFDIWGQGTMVTVSS VL: QSALTQPASVSGSPGQSITISCTGTSSDVGSYDLVSWFQQHPGKAPKLMIYEVTKRPSGVSNRFSGSKSGNTASLTISGLQAEDEADYYCCSYVGSSTYWVFGGGTKLTVL", "Parameter": "Kd", "Recorded result": 1.89}
{"Binder": "V031 (antibody, V domains shown, IgG; donor BRA14; source: recombinant monoclonal IgG, produced and purified as previously described) VH: QVQLVESGGGVVQPGRSLRLSCAASGFTFSSYGMHWVRQAPGKGLEWVAVISYDGSNKYYADSVKGRFAFSRDNSKNTLYLQMNSLRAEDTAVYYCAKGGYSYAYPRYYFDYWGQGTLVTVSS VL: DIQMTQSPSSLSASVGDRVTITCQASQDISNYLNWYQQKPGKAPKLLIYDASNLETGVPSRFSGSGSGTDFTFTISSLQPEDIATYYCQQHDNLPITFGQGTRLEIK", "Parameter": "Kd", "Recorded result": 14.5}

[in] Using known records, supply Kd for V033 (antibody, V domains shown, IgG; donor BRA14; source: recombinant monoclonal IgG, produced and purified as previously described) VH: QVQLVQSGAEVKKPGASVKVSCKASGYTFTSYGISWVRQAPGQGLEWMGWISAYNGNTNYAQKLQGRVTMTTDTSTSTAYMELRSLRSDDTAVYYCARGRFCSSTSCYRAAPNYYYYYMDVWGKGTTVTVSS VL: NFMLTQPHSVSESPGKTVTISCTRSSGSIASNYVQWYQQRPGSAPTTVIYEDNQRPSGVPDRFSGSIDSSSNSASLTISGLKTEDEADYYCQSYDSSNPYWVFGGGTKLTVL
[out] 10.7

[in] Using known records, supply Kd for V039 (antibody, V domains shown, IgG; donor BRA15; source: recombinant monoclonal IgG, produced and purified as previously described) VH: QVQLQESGPGLVKPSQTLSLTCTVSGGSISSGSYYWSWIRQPAGKGLEWIGRIYTSGSTNYNPSLKSRVTISVDTSKNQFSLKLSSVTAADTAVYYCARADYSDYDNYYFDYWGQGTLVTVSS VL: NFMLTQPHSVSESPGKTVAISCTRSSGSIASNYVHWYQQRPGSSPTTVIYDDNQRPSGVPDRFSGSIDSSSNSASLTISGLKTEDEADYYCQSYDSSNHNWVFGGGTKLTVL
[out] 0.542

[in] Using known records, supply Kd for V011 (antibody, V domains shown, IgG; donor BRA13; source: recombinant monoclonal IgG, produced and purified as previously described) VH: QVQLVQSGAEVKKPGASVKVSCKASGYIFTSYDINWVRQATGQGLEWMGWMNPNSGNTGYAQKFQGRVTMTRNTSISTAYMELSSLRSEDTAVYYCARASSSLTYYFDYWGQGTLVTVSS VL: SYELTQPPSVSVAPGKTARITCGENNIGSKSVHWYQQKPGQAPVLVVYDDSDRPSGIPERFSGSNSGNTATLTISRVEAGDEADYYCQVWDSSSDPVVFGGGTKLTVL
[out] 6.96

[in] Using known records, supply Kd for V044 (antibody, V domains shown, IgG; donor BRA15; source: recombinant monoclonal IgG, produced and purified as previously described) VH: QVQLVQSGAEVKKPGASVKVSCKASGYTFTSYDINWVRQATGQGLEWMGWMNPNSGYAGYTQKFQGRITMTRNTSISTAYMELSSLRSEDTAVYFCARISSPTRLDPWGQGTLVTVSS VL: NFMLTQPHSVSESPGKTVTISCSRSRGSIASSFVQWYQQRPGSSPTTVIYDDNQRPSGVPDRFSGSIDSSSNSASLTISGLKTEDEADYYCQSYDSISWVFGGGTKLTVL
[out] 3.66

[in] Using known records, supply Kd for V003 (antibody, V domains shown, IgG; donor BRA13; source: recombinant monoclonal IgG, produced and purified as previously described) VH: EVQLVQSGAEVKKPGESLKISCLGSGYSFTSYWIGWVRQMPGKGLEWMGIIFPADSDTRYSPSFQGQVIISADKSISTAYLQWSSLKASDTAMYYCARLREFGDYYYYGMDVWGQGTTVTVSS VL: DIQLTQSPSSLSASVGDRVTITCRASQGISSYLAWYQQKPGKAPKLLIYAASTLQSGVPSRFSGSGSGTDFTLTISSLQPEDFATYYCQQLNSYPDFGQGTKLEIK
[out] 139
